B1: Neutrophil cytosol factor 2, residues 456 to 514; numbered along this chain, P19878 (parent)
chain: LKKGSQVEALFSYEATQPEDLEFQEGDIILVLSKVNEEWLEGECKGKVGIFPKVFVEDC

variants of: B1; assay: abundance fitness (aPCA) (normalised: wild type 0, dead -1); higher = more abundant; growth selection in yeast, the domain comes from the species named; conditions: Homo sapiens
Reported abundance fitness by item:
experimentalReadout: abundance fitness

mutationName	experimentalReadout	reportedMeasurement
K45T	abundance fitness	-0.562
E8V	abundance fitness	0.959
E43C	abundance fitness	-0.685
D58K	abundance fitness	0.351
C44N	abundance fitness	-0.924
I29R	abundance fitness	-0.427
L30K	abundance fitness	0.491
F11L	abundance fitness	-0.314
K3Y	abundance fitness	-0.479
I50N	abundance fitness	-0.821
A9L	abundance fitness	-0.471
K47S	abundance fitness	-0.22
E22S	abundance fitness	0.284
S33C	abundance fitness	-0.474
Q6C	abundance fitness	-0.337
S12W	abundance fitness	-0.557
S5M	abundance fitness	0.216
S12M	abundance fitness	-0.382
P18F	abundance fitness	-0.634
G26Y	abundance fitness	-1.03
G42A	abundance fitness	-0.146
V35Q	abundance fitness	-0.302

Measured values drawn from the Human Domainome abundance scans (Beltran et al. 2025) for this set.
